These data points were gathered from patent US11034725B2.

# measured.target: PCSK9Δhelix (Homo sapiens)
# Construct: Human PCSK9 construct M1-Q692 with an engineered TEV site (residue deletion Y166, R167); made in house; host or cells: CHO
# Sequence (Q8NBP7 with tags, fused parts or gaps limits assumed): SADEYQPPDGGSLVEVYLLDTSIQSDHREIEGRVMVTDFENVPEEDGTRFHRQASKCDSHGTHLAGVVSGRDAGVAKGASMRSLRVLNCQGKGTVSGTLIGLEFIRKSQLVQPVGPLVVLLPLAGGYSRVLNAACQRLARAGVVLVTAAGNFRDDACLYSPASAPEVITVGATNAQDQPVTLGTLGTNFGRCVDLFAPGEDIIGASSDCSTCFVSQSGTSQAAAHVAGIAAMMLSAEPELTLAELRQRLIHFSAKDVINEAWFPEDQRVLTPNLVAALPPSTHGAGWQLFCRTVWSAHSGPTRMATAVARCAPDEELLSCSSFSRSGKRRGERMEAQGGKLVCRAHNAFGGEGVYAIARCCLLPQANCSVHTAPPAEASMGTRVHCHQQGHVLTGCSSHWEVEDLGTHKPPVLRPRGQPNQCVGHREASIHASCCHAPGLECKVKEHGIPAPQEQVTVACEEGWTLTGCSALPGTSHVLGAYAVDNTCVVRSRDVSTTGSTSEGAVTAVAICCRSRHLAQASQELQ
# Sequence (Q8NBP7 31-152 partner limits assumed): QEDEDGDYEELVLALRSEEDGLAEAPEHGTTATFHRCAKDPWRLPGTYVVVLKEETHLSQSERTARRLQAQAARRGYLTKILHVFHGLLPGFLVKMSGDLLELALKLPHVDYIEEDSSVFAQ
# procedure.text: PCSK9Δhelix/Ab20 TR-FRET binding assay
# condition: TR-FRET; Table 8E, additional compounds; read-out: PCSK9Δhelix/Ab20 IC50
pIC50: −log10 of the molar value. Square brackets hold non-standard residues; d marks the D form. Peptide text beside a SMILES is read from it. * marks the point of attachment. Butyryl(4-indol-3-yl) = O=C(CCCc1c[nH]c2ccccc12)*; Propanoyl(3-(4-MeO-Ph)) = COc1ccc(CCC(=O)*)cc1; X43 = CS(=O)(=O)c1ccc(C(=O)CCC(=O)*)cc1; Desaminotyrosyl = O=C(CCc1ccc(O)cc1)*; hArg = N=C(N)NCCCC[C@H](N)C(=O)O; X19 = Cc1cc(C)n(CCC(=O)*)n1; X10 = Nc1cccc(CCC(=O)*)c1; Pentanoyl = CCCCC(=O)*; X2 = CC(C)(C)CCCC(=O)*

molecule: CC[C@H](C)[C@H](NC(=O)[C@H](CCCCNC(=N)N)NC(=O)[C@@H](NC(=O)[C@H](CC(C)C)NC(=O)[C@H](CC(N)=O)NC(=O)[C@H](Cc1c[nH]c2ccccc12)NC(=O)CCc1cccc(N)c1)C(C)C)C(=O)NCC(=O)N[C@@H](CC(C)C)C(=O)N[C@@H](CC(C)C)C(=O)N[C@@H](CCCNC(=N)N)C(N)=O [Compound 215] (X10-WNLV[hArg]IGLLR-NH2)
measured.target: PCSK9Δhelix (Homo sapiens)
pIC50: 6.32

molecule: CC[C@H](C)[C@H](NC(=O)[C@H](CCCCNC(=N)N)NC(=O)[C@@H](NC(=O)[C@H](CC(C)C)NC(=O)[C@H](CC(N)=O)NC(=O)[C@H](Cc1c[nH]c2ccccc12)NC(=O)CCc1ccc(O)cc1)C(C)C)C(=O)NCC(=O)N[C@@H](CC(C)C)C(=O)N[C@@H](CC(C)C)C(=O)N[C@@H](CCCNC(=N)N)C(N)=O [Compound 214] (Desaminotyrosyl-WNLV[hArg]IGLLR-NH2)
measured.target: PCSK9Δhelix (Homo sapiens)
pIC50: 6.68

molecule: CCCCC(=O)N[C@@H](Cc1c[nH]c2ccccc12)C(=O)N[C@@H](CC(N)=O)C(=O)N[C@@H](CC(C)C)C(=O)N[C@@H](CCCCN)C(=O)N[C@@H](CCCNC(=N)N)C(=O)N[C@H](C(=O)NCC(=O)N[C@@H](CC(C)C)C(=O)N[C@@H](CC(C)C)C(=O)N[C@@H](CCCNC(=N)N)C(N)=O)[C@@H](C)CC [Compound 159] (Pentanoyl-WNLKRIGLLR-NH2)
measured.target: PCSK9Δhelix (Homo sapiens)
pIC50: 5.18

molecule: CC[C@H](C)[C@H](NC(=O)[C@H](CCCNC(=N)N)NC(=O)[C@@H](NC(=O)[C@H](CC(C)C)NC(=O)[C@H](CC(N)=O)NC(=O)[C@H](Cc1c[nH]c2ccccc12)NC(=O)CCC(=O)c1ccc(S(C)(=O)=O)cc1)C(C)C)C(=O)NCC(=O)N[C@@H](CC(C)C)C(=O)N[C@H](C(=O)N[C@@H](CCCNC(=N)N)C(N)=O)[C@@H](C)O [Compound 163] (X43-WNLVRIGLTR-NH2)
measured.target: PCSK9Δhelix (Homo sapiens)
pIC50: 4.43

molecule: CC[C@H](C)[C@H](NC(=O)[C@H](CCCNC(=N)N)NC(=O)[C@@H](NC(=O)[C@H](CC(C)C)NC(=O)[C@H](CC(N)=O)NC(=O)[C@H](Cc1c[nH]c2ccccc12)NC(=O)CCn1nc(C)cc1C)C(C)C)C(=O)NCC(=O)N[C@@H](CC(C)C)C(=O)N[C@@H](CC(C)C)C(=O)N[C@@H](CCCNC(=N)N)C(N)=O [Compound 136] (X19-WNLVRIGLLR-NH2)
measured.target: PCSK9Δhelix (Homo sapiens)
pIC50: 5.05

molecule: CC[C@H](C)[C@H](NC(=O)[C@H](CCCNC(=N)N)NC(=O)[C@@H](NC(=O)[C@H](CC(C)C)NC(=O)[C@H](CC(N)=O)NC(=O)[C@H](Cc1c[nH]c2ccccc12)NC(=O)CCCc1c[nH]c2ccccc12)C(C)C)C(=O)NCC(=O)N[C@@H](CC(C)C)C(=O)N[C@H](C(=O)N[C@@H](CCCNC(=N)N)C(N)=O)[C@@H](C)O [Compound 190] ({Butyryl(4-indol-3-yl)}-WNLVRIGLTR-NH2)
measured.target: PCSK9Δhelix (Homo sapiens)
pIC50: 5.15

molecule: CC[C@H](C)[C@H](NC(=O)[C@H](CCCCNC(=N)N)NC(=O)[C@H](CCCCN)NC(=O)[C@H](CC(C)C)NC(=O)[C@H](CC(N)=O)NC(=O)[C@H](Cc1c[nH]c2ccccc12)NC(=O)CNC(=O)[C@@H]1CCCN1C(=O)[C@H](Cc1ccccc1)NC(=O)[C@H](C)NC(=O)[C@H](Cc1ccccc1)NC(=O)[C@H](CO)NC(C)=O)C(=O)NCC(=O)N[C@@H](CC(C)C)C(=O)N[C@@H](CC(C)C)C(=O)N[C@@H](CCCNC(=N)N)C(N)=O [Compound 232] (Ac-SFAFPGWNLK[hArg]IGLLR-NH2)
measured.target: PCSK9Δhelix (Homo sapiens)
pIC50: 4.89

molecule: CC[C@H](C)[C@H](NC(=O)[C@H](CCCNC(=N)N)NC(=O)[C@@H](NC(=O)[C@H](CC(C)C)NC(=O)[C@H](CC(N)=O)NC(=O)[C@H](Cc1c[nH]c2ccccc12)NC(=O)CCCC(C)(C)C)C(C)C)C(=O)NCC(=O)N[C@@H](CC(C)C)C(=O)N[C@@H](CC(C)C)C(=O)N[C@@H](CCCNC(=N)N)C(N)=O [Compound 148] (X2-WNLVRIGLLR-NH2)
measured.target: PCSK9Δhelix (Homo sapiens)
pIC50: 4.96

molecule: CCCCC(=O)N[C@@H](Cc1c[nH]c2ccccc12)C(=O)N[C@@H](CC(N)=O)C(=O)N[C@@H](CC(C)C)C(=O)N[C@H](C(=O)N[C@@H](CCCNC(=N)N)C(=O)N[C@H](C(=O)NCC(=O)N[C@@H](CC(C)C)C(=O)NCC(=O)N[C@@H](CCCNC(=N)N)C(N)=O)[C@@H](C)CC)C(C)C [Compound 179] (Pentanoyl-WNLVRIGLGR-NH2)
measured.target: PCSK9Δhelix (Homo sapiens)
pIC50: 4.96

molecule: CC[C@H](C)[C@H](NC(=O)[C@H](CCCNC(=N)N)NC(=O)[C@@H](NC(=O)[C@H](CC(C)C)NC(=O)[C@H](CC(N)=O)NC(=O)[C@H](Cc1c[nH]c2ccccc12)NC(=O)CCc1ccc(OC)cc1)C(C)C)C(=O)NCC(=O)N[C@@H](CC(C)C)C(=O)N[C@H](C(=O)N[C@@H](CCCNC(=N)N)C(N)=O)[C@@H](C)O [Compound 166] ({Propanoyl(3-(4-MeO-Ph))}-WNLVRIGLTR-NH2)
measured.target: PCSK9Δhelix (Homo sapiens)
pIC50: 5.23
